meta.source: paper PMC7587962

System: Breast cancer subpanel
protocol_text: NCI-60 screen, subpanel Breast cancer
API: label(entry) gives Met if the entry's Selectivity, ratio MID a: MID b is strictly smaller than 1; on equality or larger values it gives Not met.

| molecule | class |
| --- | --- |
| CC(=O)OCC12CCC(C(C)C(N)=O)C1C1CCC3C4(C)CCC(OC(C)=O)C(C)(C)C4CCC3(C)C1(C)CC2 (stereo not drawn) | Not met |
| C=C(C)[C@@H]1CC[C@]2(C(=O)NCCNCCNCCN)CC[C@]3(C)[C@H](CC[C@@H]4[C@@]5(C)CC[C@H](O)C(C)(C)[C@@H]5CC[C@]43C)[C@@H]12 | Met |
| C=C(C)[C@@H]1CC[C@]2(C(=O)NCCNCCNCCN)CC[C@]3(C)[C@H](CC[C@@H]4[C@@]5(C)CCC(=O)C(C)(C)[C@@H]5CC[C@]43C)[C@@H]12 | Not met |

----------
Attribute: GI50
Test system: SW-620
protocol_text: NCI-60 SRB screen: colon cancer SW-620
Format: cell-based
cond: Homo sapiens; SW-620; five concentrations, 48 h, SRB; read-out: GI50

| compound | GI50 |
| --- | --- |
| C=C(C)[C@@H]1CC[C@]2(C(=O)NCCNCCNCCN)CC[C@]3(C)[C@H](CC[C@@H]4[C@@]5(C)CC[C@H](O)C(C)(C)[C@@H]5CC[C@]43C)[C@@H]12 [Compound 6] | 14.7 µM |
| C=C(C)[C@@H]1CC[C@]2(C(=O)OC)CC[C@]3(C)[C@H](CC[C@@H]4[C@@]5(C)CCC(=NOCCC(=NOCCC#N)NCCC#N)C(C)(C)[C@@H]5CC[C@]43C)[C@@H]12 [Compound 21] | 4.45 µM |
| C=C(C)[C@@H]1CC[C@]2(C(=O)NCCCN)CC[C@]3(C)[C@H](CC[C@@H]4[C@@]5(C)CCC(=O)C(C)(C)[C@@H]5CC[C@]43C)[C@@H]12 [Compound 10] | 22.5 µM |
| C=C(C)[C@@H]1CC[C@]2(C(=O)NCCNCCNCCN)CC[C@]3(C)[C@H](CC[C@@H]4[C@@]5(C)CCC(=O)C(C)(C)[C@@H]5CC[C@]43C)[C@@H]12 [Compound 11] | 7.91 µM |
| CC(=O)OCC12CCC(C(C)C(N)=O)C1C1CCC3C4(C)CCC(OC(C)=O)C(C)(C)C4CCC3(C)C1(C)CC2 (centres unmarked) [Compound 4] | 7.7 µM |

----------
Tested on: 60 human tumor cell lines
cond: single dose 10 µM, number of cell lines
Attribute: cases of cancer cell lethality

| compound | cases of cancer cell lethality |
| --- | --- |
| C=C(C)[C@@H]1CC[C@]2(C(N)=O)CC[C@]3(C)[C@H](CC[C@@H]4[C@@]5(C)CC[C@H](O)C(C)(C)[C@@H]5CC[C@]43C)[C@@H]12 [Compound 5] | 49 |
| C=C(C)[C@@H]1CC[C@]2(C(=O)NCCNCCNCCN)CC[C@]3(C)[C@H](CC[C@@H]4[C@@]5(C)CC[C@H](O)C(C)(C)[C@@H]5CC[C@]43C)[C@@H]12 [Compound 6] | 57 |
| C=C(C)[C@@H]1CC[C@]2(C(=O)NCCCN)CC[C@]3(C)[C@H](CC[C@@H]4[C@@]5(C)CCC(=O)C(C)(C)[C@@H]5CC[C@]43C)[C@@H]12 [Compound 10] | 48 |
